target: complement C5a receptor 1 (C5aR1) (Homo sapiens, UniProt P21730); construct: β-galactosidase fragment (PathHunter enzyme complementation); host or cells: CHO-K1 (PathHunter CHO-K1 C5aR1 β-arrestin cell line); assay: β-arrestin recruitment via C5aR1 activation in live CHO-K1 cells (PathHunter), antagonist mode; type: cell-based; conditions: antagonist mode; recombinant hC5a (EC90) as competing natural agonist; live CHO-K1 cells; read-out: [Antagonist] B-arrestin2 recruitment: Average IC50
Sequence (P21730 whole entry, the tested form may be a part): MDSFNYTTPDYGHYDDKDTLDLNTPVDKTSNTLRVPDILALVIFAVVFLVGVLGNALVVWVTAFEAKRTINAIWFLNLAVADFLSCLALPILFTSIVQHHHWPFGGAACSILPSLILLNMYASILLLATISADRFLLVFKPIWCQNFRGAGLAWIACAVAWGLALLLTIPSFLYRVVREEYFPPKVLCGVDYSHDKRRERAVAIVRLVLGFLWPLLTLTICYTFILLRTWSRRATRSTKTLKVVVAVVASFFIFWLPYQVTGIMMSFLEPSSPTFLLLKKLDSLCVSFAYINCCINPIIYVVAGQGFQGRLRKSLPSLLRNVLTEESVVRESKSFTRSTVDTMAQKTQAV
pIC50: −log10 of the molar value.
What pIC50 was measured for each of the following?

Recorded pIC50 (molecule `Cc1cccc(F)c1N1CCC(n2c(=O)c3nccnc3n(Cc3nccnc3C(F)(F)F)c2=O)CC1` ): 4.00 to 5.30

Recorded pIC50 (molecule `Cc1cnc2cc([C@H]3CC[C@H](c4nccs4)CC3)c(=O)n(Cc3ncccc3C(F)(F)F)c2n1` ): 5.30 to 6.30

Recorded pIC50 (molecule `Cc1ccc2cc([C@H]3CC[C@H](c4c(C)cccc4F)CC3)c(=O)n(Cc3nccnc3C(F)F)c2n1` ): > 6.30

Recorded pIC50 (molecule Cc1cnc2cc([C@@H]3CC[C@@H](c4c(C)cccc4F)C3)c(=O)n(Cc3ncccc3C(F)(F)F)c2n1 [171D] ): 5.30 to 6.30

Recorded pIC50 (molecule `Cc1cnc2cc([C@H]3CC[C@H](c4c(C)cccc4F)CC3)c(=O)n(Cc3nccnc3C3CC3)c2n1` ): > 6.30

Recorded pIC50 (molecule `Cc1ncc2cc(N3CCN(c4c(C)cccc4F)CC3)c(=O)n(Cc3ncccc3C(F)(F)F)c2n1` ): 5.30 to 6.30

Recorded pIC50 (molecule `Cc1cnc2c(C)c(N3CCN(c4c(C)cccc4F)CC3)c(=O)n(Cc3ncccc3C(F)(F)F)c2n1` ): 5.30 to 6.30

Recorded pIC50 (molecule `Cc1cnc2cc([C@H]3CC[C@H](c4c(C)cncc4F)CC3)c(=O)n(Cc3ncccc3C(F)(F)F)c2n1` ): > 6.30

Recorded pIC50 (molecule `Cc1cnc2cc(C3CCN(c4cncnc4C)CC3)c(=O)n(Cc3ncccc3C(F)(F)F)c2n1` ): 4.00 to 5.30

Recorded pIC50 (molecule `COc1nccc(C)c1[C@H]1CC[C@H](c2cc3ccc(C)nc3n(Cc3ncccc3C3CC3)c2=O)CC1` ): > 6.30
